// provenance: paper PMC12703733

- Assay type: cell-based, human
- condition info: human, Cell viability (%)
Bridge positions count the residues as written; N and C are the ends. Square brackets hold non-standard residues; d marks the D form. Peptide text beside a SMILES is read from it. * marks the point of attachment. Phe(4-guanidino) = N=C(N)Nc1ccc(C[C@H](N)C(=O)O)cc1; Propanoyl(3-guanidino) = N=C(N)NCCC(=O)*
As shown below, each of these compounds has a reported viability at 24 h, 12.5 µM value.
A number alone suffices; assume %.

CC[C@H](C)[C@H](NC(=O)[C@H](CCCNC(=N)N)NC(=O)[C@H]1CCC(=O)NCCCC[C@H](NC(=O)[C@H](Cc2ccccc2)NC(=O)[C@H](Cc2c[nH]c3ccccc23)NC(=O)[C@@H]2CCCN2C(=O)[C@@H](NC(=O)[C@H](Cc2ccccc2)NC(=O)CCNC(=N)N)C(C)C)C(=O)N[C@@H](CCCCN)C(=O)N[C@@H](Cc2ccccc2)C(=O)N[C@H](CC(C)C)C(=O)N1)C(=O)N[C@@H](CC(C)C)C(N)=O [Peptide 4, guanidino-βAla-FVPWF[KKFle]RIL] ({Propanoyl(3-guanidino)}-FVPWFKKF[dL][dE]RIL-NH2; lactam 6-10)    88

Pending compound:
Q) Indicate the recorded viability at 24 h, 12.5 µM value for this compound: CC[C@H](C)[C@H](NC(=O)[C@H](CCCNC(=N)N)NC(=O)[C@H]1CCC(=O)NCCCC[C@H](NC(=O)[C@H](Cc2ccc(NC(=N)N)cc2)NC(=O)[C@H](Cc2c[nH]c3ccccc23)NC(=O)[C@@H]2CCCN2C(=O)[C@@H](NC(=O)[C@@H](N)Cc2ccccc2)C(C)C)C(=O)N[C@@H](CCCCN)C(=O)N[C@@H](Cc2ccccc2)C(=O)N[C@H](CC(C)C)C(=O)N1)C(=O)N[C@@H](CC(C)C)C(N)=O [Peptide 8, FVPW(p-guanidino)F[KKFle]RIL] (H-FVPW[Phe(4-guanidino)]KKF[dL][dE]RIL-NH2; lactam 6-10)
A) 110

###

- assay comment: circular dichroism
- condition info: water; pH ns; 25 °C; 150 uM
Bridge positions count the residues as written; N and C are the ends. Square brackets hold non-standard residues; d marks the D form. Peptide text beside a SMILES is read from it. * marks the point of attachment. Phe(4-guanidino) = N=C(N)Nc1ccc(C[C@H](N)C(=O)O)cc1; X1 = N=C(N)N[C@@H](Cc1ccccc1)C(=O)*
As shown below, each of these molecules has a reported helicity value.
Numeric answer plus unit only.

As a guide, the following entries are already answered.
CC[C@H](C)[C@H](NC(=O)[C@H](CCCNC(=N)N)NC(=O)[C@@H]1CCCNC(=N)NCCC[C@H](NC(=O)[C@H](Cc2ccccc2)NC(=O)[C@H](Cc2c[nH]c3ccccc23)NC(=O)[C@@H]2CCCN2C(=O)[C@@H](NC(=O)[C@@H](N)Cc2ccccc2)C(C)C)C(=O)N[C@@H](CCCCN)C(=O)N[C@@H](Cc2ccccc2)C(=O)N[C@H](CC(C)C)C(=O)N1)C(=O)N[C@@H](CC(C)C)C(N)=O [Peptide 13, FVPWF{OrnKFlOrn}RIL]    10%
CC[C@H](C)[C@H](NC(=O)[C@H](CCCNC(=N)N)NC(=O)[C@H]1CCC(=O)NCCCC[C@H](NC(=O)[C@H](Cc2ccccc2)NC(=O)[C@H](Cc2c[nH]c3ccccc23)NC(=O)[C@@H]2CCCN2C(=O)[C@@H](NC(=O)[C@H](Cc2ccccc2)NC(=N)N)C(C)C)C(=O)N[C@@H](CCCCN)C(=O)N[C@@H](Cc2ccccc2)C(=O)N[C@H](CC(C)C)C(=O)N1)C(=O)N[C@@H](CC(C)C)C(N)=O [Peptide 3, guanidino-FVPWF[KKFle]RIL] (X1-VPWFKKF[dL][dE]RIL-NH2; lactam 5-9)    1%

Q) Indicate the recorded helicity value for this molecule: CC[C@H](C)[C@H](NC(=O)[C@H](CCCNC(=N)N)NC(=O)[C@@H]1CCCCNC(=N)NCCCC[C@H](NC(=O)[C@H](Cc2ccccc2)NC(=O)[C@H](Cc2c[nH]c3ccccc23)NC(=O)[C@@H]2CCCN2C(=O)[C@@H](NC(=O)[C@@H](N)Cc2ccccc2)C(C)C)C(=O)N[C@@H](CCCCN)C(=O)N[C@@H](Cc2ccccc2)C(=O)N[C@H](CC(C)C)C(=O)N1)C(=O)N[C@@H](CC(C)C)C(N)=O [Peptide 11, FVPWF{KKFlK}RIL]
A) 76%

Q) Indicate the recorded helicity value for this molecule: CC[C@H](C)[C@H](NC(=O)[C@H](CCCNC(=N)N)NC(=O)[C@H]1CCC(=O)NCCCC[C@H](NC(=O)[C@H](Cc2ccccc2)NC(=O)[C@H](Cc2c[nH]c3ccccc23)NC(=O)[C@@H]2CCCN2C(=O)[C@@H](NC(=O)[C@@H](N)Cc2ccccc2)C(C)C)C(=O)N[C@@H](CCCCN)C(=O)N[C@@H](Cc2ccc(NC(=N)N)cc2)C(=O)N[C@H](CC(C)C)C(=O)N1)C(=O)N[C@@H](CC(C)C)C(N)=O [Peptide 10, FVPWF[KK(p-guanidino)Fle]RIL] (H-FVPWFKK[Phe(4-guanidino)][dL][dE]RIL-NH2; lactam 6-10)
A) 3%

###

- System: S. aureus ATCC 25923
- assay comment: microbe, parasite or virus in culture
- Format: cell-based
- condition info: ATCC 25923
Bridge positions count the residues as written; N and C are the ends. Square brackets hold non-standard residues; d marks the D form. Peptide text beside a SMILES is read from it. Pro(cis-4-guanidino) = NC(N)=N[C@@H]1CN[C@H](C(=O)O)C1; Phe(4-guanidino) = N=C(N)Nc1ccc(C[C@H](N)C(=O)O)cc1
As shown below, each of these compounds has a reported MIC value.
A number alone suffices; assume µM.

As a guide, the following entries are already answered.
CC[C@H](C)[C@H](NC(=O)[C@H](CCCNC(=N)N)NC(=O)[C@H]1CCC(=O)NCCCC[C@H](NC(=O)[C@H](Cc2ccccc2)NC(=O)[C@H](Cc2c[nH]c3ccccc23)NC(=O)[C@@H]2C[C@H](NC(=N)N)CN2C(=O)[C@@H](NC(=O)[C@@H](N)Cc2ccccc2)C(C)C)C(=O)N[C@@H](CCCCN)C(=O)N[C@@H](Cc2ccccc2)C(=O)N[C@H](CC(C)C)C(=O)N1)C(=O)N[C@@H](CC(C)C)C(N)=O [Peptide 7, FV(4-guanidino)PWF[KKFle]RIL] (H-FV[Pro(cis-4-guanidino)]WFKKF[dL][dE]RIL-NH2; lactam 6-10)    6.25
CC[C@H](C)[C@H](NC(=O)[C@H](CCCNC(=N)N)NC(=O)[C@H]1CCC(=O)NCCCC[C@H](NC(=O)[C@H](Cc2ccccc2)NC(=O)[C@H](Cc2c[nH]c3ccccc23)NC(=O)[C@@H]2CCCN2C(=O)[C@@H](NC(=O)[C@@H](N)Cc2ccccc2)C(C)C)C(=O)N[C@@H](CCCCN)C(=O)N[C@@H](Cc2ccc(NC(=N)N)cc2)C(=O)N[C@H](CC(C)C)C(=O)N1)C(=O)N[C@@H](CC(C)C)C(N)=O [Peptide 10, FVPWF[KK(p-guanidino)Fle]RIL] (H-FVPWFKK[Phe(4-guanidino)][dL][dE]RIL-NH2; lactam 6-10)    100
CC[C@H](C)[C@H](NC(=O)[C@H](CCCNC(=N)N)NC(=O)[C@H]1CCC(=O)NCCCC[C@H](NC(=O)[C@H](Cc2ccccc2)NC(=O)[C@H](Cc2c[nH]c3ccccc23)NC(=O)[C@@H]2CCCN2C(=O)[C@@H](NC(=O)[C@@H](N)Cc2ccc(NC(=N)N)cc2)C(C)C)C(=O)N[C@@H](CCCCN)C(=O)N[C@@H](Cc2ccccc2)C(=O)N[C@H](CC(C)C)C(=O)N1)C(=O)N[C@@H](CC(C)C)C(N)=O [Peptide 6, (p-guanidino)FVPWF[KKFle]RIL] (H-[Phe(4-guanidino)]VPWFKKF[dL][dE]RIL-NH2; lactam 6-10)    25

Q) GET MIC where system = S. aureus ATCC 25923 and item = CC[C@H](C)[C@H](NC(=O)[C@H](CCCNC(=N)N)NC(=O)[C@H]1CCCCNC(=N)NCCCC[C@H](NC(=O)[C@H](Cc2ccccc2)NC(=O)[C@H](Cc2c[nH]c3ccccc23)NC(=O)[C@@H]2CCCN2C(=O)[C@@H](NC(=O)[C@@H](N)Cc2ccccc2)C(C)C)C(=O)N[C@@H](CCCCN)C(=O)N[C@@H](Cc2ccccc2)C(=O)N[C@H](CC(C)C)C(=O)N1)C(=O)N[C@@H](CC(C)C)C(N)=O [Peptide 12, FVPWF{KKFlk}RIL]
A) 6.25

Q) GET MIC where system = S. aureus ATCC 25923 and item = CC[C@H](C)[C@H](NC(=O)[C@H](CCCNC(=N)N)NC(=O)[C@@H]1CCCNC(=N)NCCC[C@H](NC(=O)[C@H](Cc2ccccc2)NC(=O)[C@H](Cc2c[nH]c3ccccc23)NC(=O)[C@@H]2CCCN2C(=O)[C@@H](NC(=O)[C@@H](N)Cc2ccccc2)C(C)C)C(=O)N[C@@H](CCCCN)C(=O)N[C@@H](Cc2ccccc2)C(=O)N[C@H](CC(C)C)C(=O)N1)C(=O)N[C@@H](CC(C)C)C(N)=O [Peptide 13, FVPWF{OrnKFlOrn}RIL]
A) 6.25

Q) GET MIC where system = S. aureus ATCC 25923 and item = CC[C@H](C)[C@H](NC(=O)[C@H](CCCNC(=N)N)NC(=O)[C@H]1CCC(=O)NCCCC[C@H](NC(=O)[C@H](Cc2ccccc2)NC(=O)[C@H](Cc2c[nH]c3ccccc23)NC(=O)[C@@H]2CCCN2C(=O)[C@@H](NC(=O)[C@@H](N)Cc2ccccc2)C(C)C)C(=O)N[C@@H](CCCCN)C(=O)N[C@@H](Cc2ccccc2)C(=O)N[C@H](CC(C)C)C(=O)N1)C(=O)N[C@@H](CC(C)C)C(N)=O [Peptide 2, FVPWF[KKFle]RIL] (H-FVPWFKKF[dL][dE]RIL-NH2; lactam 6-10)
A) 12.5
